Tested on: Caco-2
method-notes: drug sensitivity score (DSS) for viability; higher = more toxic; extreme values may be limits of the assay
conditions: 72 h
Please go through the items and note down their drug sensitivity score.

[in] Recorded drug sensitivity score of Cc1nc2cnc3ccc(C#Cc4cccnc4)cc3c2n1-c1ccc(C(C)(C)C#N)cc1 [BAG-956] , please.
[out] 15.3

[in] Look up drug sensitivity score: `Cc1csc(NC(=O)CSc2ccc(-c3ccccc3)nn2)n1`
[out] 0

[in] Field request: drug sensitivity score | item: Oc1ccc(Cl)c2c1CCC2 [chlorindanol]
[out] 0

* * *

System: U2OS
method-notes: cell viability relative to DMSO; higher = less toxic
conditions: 72 h; 10 nM
For each of the compounds below, state its cell viability.
Write down the numeric answer in % and omit the unit.

[in] Could you tell me which cell viability is on file for CC(C)(C)C(=O)OCC(=O)[C@H]1CC[C@H]2[C@@H]3CCC4=CC(=O)CC[C@]4(C)[C@H]3CC[C@]12C [desoxycorticosterone-pivalate] ?
[out] 98.1

[in] Sample COc1cc(Oc2ccnc3cc(OC)c(OC)cc23)ccc1NC(=O)NC(C)c1nccs1 (stereo unspecified) — what was its cell viability?
[out] 98.8

[in] Given the entry CCCC(C)(COC(N)=O)COC(=O)NC(C)C (stereo unspecified) , report its measured cell viability.
[out] 97.7

[in] What value of cell viability has been recorded for this entry: `CN1Cc2ccccc2[C@@H]2c3cccc4[nH]cc(c34)C[C@H]21`
[out] 99.4

[in] What does the data say about its cell viability? Entry: `CN1C(C(=O)Nc2ccccn2)=C(O)c2ccccc2S1(=O)=O`
[out] 94.9

[in] Which cell viability is reported for this compound? `CNC(=O)c1ccc2c(c1)CCO[C@H]2CCN1CCN(c2ccc(C(N)=O)cc2)CC1`
[out] 106

[in] Look up cell viability: CC(C)NCC(O)COc1cccc2[nH]c3ccccc3c12 (stereo unspecified)
[out] 96.3

[in] Could you tell me which cell viability is on file for `Cn1cnc2c(F)c(Nc3ccc(Br)cc3F)c(C(=O)NOCCO)cc21` ?
[out] 91.4

[in] Quick check: cell viability of `CC(=O)c1ccc2c(c1)[C@H](NC(=O)c1ccc(F)c(Cl)c1)[C@H](O)C(C)(C)O2` ?
[out] 105

[in] Query: cell viability; subject: `C=C1C(=O)[C@]23[C@H](O)[C@H]1CC[C@H]2[C@@]12CO[C@]3(O)[C@@H](O)[C@@H]1C(C)(C)CC[C@@H]2O`
[out] 95.1

[in] I have this compound here, CCN(CC)C(C)C(=O)c1ccccc1 (stereo unspecified) , and I need its recorded cell viability.
[out] 95.3

# credit: the supplement of paper PMC13380429
